system: Zea mays (ZEAMX); type: in vivo; conditions: pre-emergence, 80 g/ha, crop plant compatibility, in comparison to untreated controls
measured_endpoint: Pre-emergence action against ZEAMX in % (%)

Solved entries (count: 4):
Input CCOC(=O)COc1nn(-c2ccnc(F)c2)c(-c2ccc(F)nc2)c1Br [III-01] . Output Pre-emergence action against ZEAMX in %: 10

Input O=C(O)CSc1nn(-c2ccccn2)c(-c2cncc(F)c2)c1I [Example I-229] . Output Pre-emergence action against ZEAMX in %: 0

Input CCOC(=O)C(C)Oc1nn(-c2ccccn2)c(-c2ccc(F)nc2)c1Br (racemic) [Example I-58] . Output Pre-emergence action against ZEAMX in %: 20

Input COCCOC(=O)COc1nn(-c2ncccc2C(F)(F)F)c(-c2ccc(F)nc2)c1Cl [Example I-362] . Output Pre-emergence action against ZEAMX in %: 0

[I] COC(=O)CCOC(=O)COc1nn(-c2ccccn2)c(-c2ccc(Cl)nc2)c1Br [Example I-246]
[II] CCOC(=O)COc1nn(-c2nc(F)ccc2F)c(-c2ccc(F)nc2)c1Cl [Example I-315]
Which one would you say has the larger Pre-emergence action against ZEAMX in % value: I , or II ? Use the label to indicate which entry you chose. I

* * *

test system: Amaranthus retroflexus (AMARE); assay: Pre-emergence herbicidal action against AMARE; format: in vivo; details: 320 g/ha, visual scoring after about 3 weeks vs untreated controls
measured_endpoint: Pre-emergence action against AMARE in % (%)
Response body: numeric value in %, unit text excluded.

Solved entries (count: 3):
Input COC(=O)[C@H](C)COC(=O)COc1nn(-c2ccccn2)c(-c2cncc(F)c2)c1Cl [Example I-74] . Output Pre-emergence action against AMARE in %: 100

Input O=C(O)COc1nn(-c2ncccc2F)c(-c2ccc(F)nc2)c1Br [Example I-08] . Output Pre-emergence action against AMARE in %: 100

Input COC(=O)CCOC(=O)COc1nn(-c2ccccn2)c(-c2ccc(F)nc2)c1Br [Example I-116] . Output Pre-emergence action against AMARE in %: 100

Next:
Input C[C@@H](Oc1nn(-c2nc(F)ccc2F)c(-c2cncc(F)c2)c1Cl)C(=O)O [Example I-159] . Output Pre-emergence action against AMARE in %: 100

Input CCOC(=O)COc1nn(-c2ncccc2C)c(-c2ccc(F)nc2)c1Cl [Example I-316] . Output Pre-emergence action against AMARE in %: 100

Input COC(=O)CCOC(=O)[C@@H](C)Oc1nn(-c2ccccn2)c(-c2ccc(Cl)nc2)c1Cl [Example I-245] . Output Pre-emergence action against AMARE in %: 80

Input COC(=O)CNC(=O)COc1nn(-c2ccccn2)c(-c2ccc(F)nc2)c1Cl [Example I-64] . Output Pre-emergence action against AMARE in %: 100

Input O=C(O)COc1nn(-c2ccccn2)c(-c2ccc(Cl)nc2)c1Cl [Example I-236] . Output Pre-emergence action against AMARE in %: 80

* * *

test system: Glycine max (GLXMA); assay: Post-emergence crop plant compatibility, GLXMA; type: in vivo; conditions: post-emergence, 80 g/ha, effect in comparison to untreated controls
measured_endpoint: Post-emergence action against GLXMA in % (%)

Input CCOC(=O)COc1nn(-c2ncccc2F)c(-c2ccc(F)nc2)c1I [Example I-55] . Output Post-emergence action against GLXMA in %: 0

[I] CCOC(=O)C[S+]([O-])c1nn(-c2ccccn2)c(-c2cncc(F)c2)c1Cl (centres unmarked) [Example I-150]
[II] CCOC(=O)C1CCN(C(=O)COc2nn(-c3ccccn3)c(-c3ccc(F)nc3)c2Br)CC1 [Example I-112]
Which one would you say has the larger Post-emergence action against GLXMA in % value: I , or II ? Use the label to indicate which entry you chose. II

[1] COC(=O)CN(C)C(=O)COc1nn(-c2ccccn2)c(-c2ccc(F)nc2)c1Br [Example I-114]
[2] O=C(CSc1nn(-c2ccccn2)c(-c2cncc(F)c2)c1Br)NC1CC1 [Example I-201]
[3] C[C@@H](Oc1nn(-c2ncccc2F)c(-c2ccc(F)nc2)c1Br)C(=O)O [Example I-50]
Order by Post-emergence action against GLXMA in %, ascending. Return the labels ranked in the requested order, please. 1, 3, 2

[a] COC(=O)CN(C)C(=O)COc1nn(-c2ccnc(Cl)c2)c(-c2ccc(F)nc2)c1Br [III-21]
[b] COC(=O)C1CCCN(C(=O)COc2nn(-c3ccccn3)c(-c3ccc(F)nc3)c2Br)C1 (centres unmarked) [Example I-108]
Could you determine which record has the numerically smaller Post-emergence action against GLXMA in %? Candidates: a and b Use the label to indicate which entry you chose. a
(a: 0%, b: 10%)
